# Test system: MKN-45
# assay_name: Cytotoxicity against human MKN45 cells after 72 hrs by MTT assay
# Format: functional, cell-based
# assay_conditions: MKN-45, 72 h
pIC50: −log10 of the molar value.
Each item that follows carries a reported pIC50.

{"smiles_record": "COc1ccc(-c2cc(-c3ccc(F)cc3F)n3c(CN4CCCC4)cnc3c2C#N)c(OC)c1OC", "pIC50": 5.14}
{"smiles_record": "CC1CCN(Cc2cn3c(-c4c[nH]c5ccccc45)cc(-c4ccc(F)cc4F)c(C#N)c3n2)CC1", "pIC50": 5.58}
{"smiles_record": "CN(C)Cc1cn2c(-c3c[nH]c4ccccc34)cc(-c3ccc(F)cc3F)c(C#N)c2n1", "pIC50": 5.87}
{"smiles_record": "CCN(CC)Cc1cn2c(-c3c[nH]c4ccccc34)cc(-c3ccc(F)cc3F)c(C#N)c2n1", "pIC50": 5.49}
{"smiles_record": "CNCc1cn2c(-c3c[nH]c4ccccc34)cc(-c3ccc(F)cc3Cl)c(C#N)c2n1", "pIC50": 5.61}
{"smiles_record": "N#Cc1c(-c2ccc(F)cc2F)cc(-c2c[nH]c3ccccc23)n2cc(CN3CCCC3)nc12", "pIC50": 6.32}
{"smiles_record": "CN1CCN(Cc2cn3c(-c4c[nH]c5ccccc45)cc(-c4ccc(F)cc4Cl)c(C#N)c3n2)CC1", "pIC50": 5.44}
{"smiles_record": "COc1ccc(-c2cc(-c3ccc(F)cc3)n3c(CN4CCN(C)CC4)cnc3c2C#N)c(OC)c1OC", "pIC50": 5.26}

----------
# System: A549
# assay_name: Cytotoxicity against human A549 cells after 72 hrs by MTT assay
# Type: functional, cell-based
# assay_conditions: A549, 72 h

{"smiles_record": "COc1ccc(-c2cc(-c3ccc(F)cc3F)n3c(CN4CCCC4)cnc3c2C#N)c(OC)c1OC", "IC50, nM": 800}
{"smiles_record": "COc1ccc(-c2cc(-c3ccc(F)cc3F)n3c(CN4CCOCC4)cnc3c2C#N)c(OC)c1OC", "IC50, nM": 1150}
{"smiles_record": "CCN(CC)Cc1cnc2c(C#N)c(-c3ccc(OC)c(OC)c3OC)cc(-c3ccc(F)cc3F)n12", "IC50, nM": 1040}
{"smiles_record": "CC(C)NCc1cn2c(-c3c[nH]c4ccccc34)cc(-c3ccc(F)cc3F)c(C#N)c2n1", "IC50, nM": 1920}
{"smiles_record": "N#Cc1c(-c2ccc(F)cc2Cl)cc(-c2c[nH]c3ccccc23)n2cc(CNC3CCCCC3)nc12", "IC50, nM": 2530}
{"smiles_record": "CCNCc1cnc2c(C#N)c(-c3ccc(OC)c(OC)c3OC)cc(-c3ccc(F)cc3F)n12", "IC50, nM": 170}
{"smiles_record": "N#Cc1c(-c2ccc(F)cc2F)cc(-c2c[nH]c3ccccc23)n2cc(CN3CCCC3)nc12", "IC50, nM": 1030}
{"smiles_record": "CN1CCN(Cc2cn3c(-c4c[nH]c5ccccc45)cc(-c4ccc(F)cc4F)c(C#N)c3n2)CC1", "IC50, nM": 920}
{"smiles_record": "COc1ccc(-c2cc(-c3ccc(F)cc3)n3c(CN(C)C)cnc3c2C#N)c(OC)c1OC", "IC50, nM": 670}
{"smiles_record": "N#Cc1c(-c2ccc(F)cc2F)cc(-c2c[nH]c3ccccc23)n2cc(CN3CCOCC3)nc12", "IC50, nM": 3330}
{"smiles_record": "N#Cc1c(-c2ccc(F)cc2F)cc(-c2c[nH]c3ccccc23)n2cc(CNC3CCCCC3)nc12", "IC50, nM": 540}
{"smiles_record": "CCNCc1cnc2c(C#N)c(-c3ccc(OC)c(OC)c3OC)cc(-c3ccc(F)cc3)n12", "IC50, nM": 3240}
